Reference source for all entries: ChEMBL document CHEMBL4715711

- assayedSystem: UniProt:P81908
- Sequence (P81908 whole entry): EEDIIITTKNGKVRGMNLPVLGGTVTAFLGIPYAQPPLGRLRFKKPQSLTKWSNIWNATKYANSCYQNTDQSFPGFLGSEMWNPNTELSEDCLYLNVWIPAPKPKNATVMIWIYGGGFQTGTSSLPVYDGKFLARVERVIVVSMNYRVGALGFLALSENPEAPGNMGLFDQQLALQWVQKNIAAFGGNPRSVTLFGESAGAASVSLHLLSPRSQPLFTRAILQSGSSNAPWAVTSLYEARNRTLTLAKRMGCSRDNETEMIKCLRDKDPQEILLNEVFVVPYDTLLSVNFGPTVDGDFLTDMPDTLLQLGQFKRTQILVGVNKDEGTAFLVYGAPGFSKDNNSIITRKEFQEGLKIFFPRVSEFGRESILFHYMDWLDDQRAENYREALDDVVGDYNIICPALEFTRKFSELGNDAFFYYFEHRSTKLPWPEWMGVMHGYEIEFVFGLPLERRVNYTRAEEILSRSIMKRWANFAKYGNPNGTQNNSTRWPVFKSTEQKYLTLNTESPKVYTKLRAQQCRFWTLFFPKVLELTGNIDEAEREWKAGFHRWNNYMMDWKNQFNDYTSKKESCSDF
- experiment: Inhibition of equine serum BuChE using butyrylthiocholine iodide as substrate incubated for 5 mins followed by substrate addition and measured after 2 mins by Ellman's method
Please assign not met whenever IC50 is at or above 5 µM, and met whenever it is below.

sampleSmiles: N#Cc1cccnc1N1CCN(c2nc(Nc3cccc(C(F)(F)F)c3)nc(NC3CC3)n2)CC1
group: not met
//
sampleSmiles: N#Cc1cccnc1N1CCN(c2nc(Nc3cccc(C(F)(F)F)c3)nc(Nc3ccc(F)cc3F)n2)CC1
group: met
//
sampleSmiles: Cc1ccc(Nc2nc(Nc3cccc(C(F)(F)F)c3)nc(N3CCN(c4ncccc4C#N)CC3)n2)cc1
group: met
//
sampleSmiles: COc1ccc(Nc2nc(Nc3ccccc3F)nc(N3CCN(c4ncccc4C#N)CC3)n2)cc1
group: met
//
sampleSmiles: Cc1ccc(Nc2nc(Nc3ccc(F)c(Cl)c3)nc(N3CCN(c4ncccc4C#N)CC3)n2)cc1
group: not met
//
sampleSmiles: N#Cc1cccnc1N1CCN(c2nc(Nc3cccc(C(F)(F)F)c3)nc(Nc3ccc(F)c(Cl)c3)n2)CC1
group: met
//
sampleSmiles: COc1ccc(Nc2nc(Nc3cccc(C(F)(F)F)c3)nc(N3CCN(c4ncccc4C#N)CC3)n2)cc1
group: met
